test system: HCT-116; assay: NCI tumour cell line growth inhibition, 48 h
The source made the active and inactive calls. Cut-off read from the data, not from the text of the source: active = GI50 up to about 1.1 µM and inactive = higher.
Use one of these outcomes when replying: true (1) for active, false (0) for inactive

Illustrative cases are given below, each with its answer.
# compound, label
data = [
    ("Cc1cccc2c1CC1(Cc3ccccc3C1=O)C2=O (stereo unspecified)", "false (0)"),
    ("CN1CCN(C2=CC(=O)c3c(O)ccc(O)c3C2=O)CC1", "true (1)"),
    ("COC1(OC)CC(CO)(CNc2nc(N)nc(Cl)c2C=O)C1", "false (0)"),
]

Request: How was Fc1ccc(C(OCCN2CCN(CCCCl)CC2)c2ccc(F)cc2)cc1 classified in this test?
Response: false (0)

Request: How was Cc1nc2cccc(F)c2c(=O)n1-c1nnc(C(F)(F)F)s1 classified in this test?
Response: false (0)

Request: How was O=C(O)c1ccccc1Sc1ccc(C=C2NC(=S)N(c3ccccc3)C2=O)s1 classified in this test?
Response: false (0)

###

test system: PC-3; experiment: NCI tumour cell line growth inhibition, 48 h
The source made the active and inactive calls. Cut-off read from the data, not from the text of the source: active = GI50 up to about 1.1 µM and inactive = higher.
readout-name: GI50

Check out these entries, answers already filled in.
# compound, readout-name, result
records = [
    ("Cc1csc2c(P(=O)(OC(C)C)OC(C)C)c(-c3ccccc3)cn12", "GI50", "14.8 µM (inactive)"),
    ("NNC(=O)CNC(=O)CSc1nnc(COc2ccc(Cl)cc2)n1-c1ccccc1", "GI50", "> 100 µM (inactive)"),
    ("COc1ccccc1NCc1cccc2c(=O)c3ccc(Cl)cc3oc12", "GI50", "58.7 µM (inactive)"),
    ("CCOC(=O)Nn1c(C)nnc1-c1ccccc1", "GI50", "> 100 µM (inactive)"),
]

Request: Which GI50 is listed for C(=C\Nc1ccc(-c2ccccc2)cc1)/C=N/c1ccc(-c2ccccc2)cc1 ?
Response: > 100 µM (inactive)

Request: Which GI50 is listed for Oc1nc2c(c(-c3ccc(Br)cc3)n1)COC/C2=C\c1ccc(Br)cc1 ?
Response: > 50 µM (inactive)

Request: Which GI50 is listed for CC(C)C1OC23CCCCC2C(C#N)(C#N)C1(C#N)C(=N)O3 (stereo unspecified) ?
Response: 30.4 µM (inactive)

Request: Which GI50 is listed for CCCCCCCCCCCCCCCCNC(=O)/C(O)=C/C(=O)c1ccc(C)cc1 ?
Response: 3.32 µM (inactive)

###

system: UO-31; assay: NCI tumour cell line growth inhibition, 48 h
Calls of active or inactive are those of the source. Rule as the data show it: active = GI50 up to about 1.1 µM and inactive = higher.
Use one of these outcomes when replying: 1 for active, -1 for inactive

Request: How was CCc1cc2c(c3c1CCC3=O)CC1(Cc3ccc(C)cc3C1)C2 (stereo not given) classified in this test?
Response: 1

Request: How was O=C(NCc1ccccc1)C1C(=O)C(=O)N(Cc2ccccc2)C1=O (stereo not given) classified in this test?
Response: -1

Request: How was Cc1cc(C)c2c(=N)c3ccccc3n(CCCCCCn3c4ccccc4c(=N)c4c(C)cc(C)nc43)c2n1 classified in this test?
Response: -1

Request: How was COC(=O)c1cc(Br)c(C(=O)C(Cl)(Cl)Cl)[nH]1 classified in this test?
Response: -1

Request: How was CCCCC1Cc2cc(OC)ccc2-c2n1c1cc(OC)ccc1[n+]2C.CCCCC1Cc2cc(OC)ccc2-c2n1c1ccc(OC)cc1[n+]2C (stereo not given) classified in this test?
Response: -1

Request: How was Cc1ccc2nc(Cl)c(/C=N/N3C(=O)/C(=C/c4ccccc4S)N=C3c3ccccc3)cc2c1 classified in this test?
Response: -1

Request: How was CC(=O)Oc1cc(OC(C)=O)c2c(c1C)CC[C@@H]1[C@@H]2CC[C@]2(C)[C@@H](OC(C)=O)CC[C@@H]12 classified in this test?
Response: -1

Request: How was COc1cc(/C=C2/SC(c3ccccc3)N(c3cccc([N+](=O)[O-])c3)C2=O)cc(OC)c1OC (stereo not given) classified in this test?
Response: -1

Request: How was CCOC(=O)c1c(NC(=O)c2ccc(OC)cc2)sc2c1CCCC2 classified in this test?
Response: -1

Request: How was COc1ccc(/C=C(\C#N)c2ccccn2)cc1OC classified in this test?
Response: -1

Request: How was OCC#CCNCl classified in this test?
Response: -1

Request: How was CC(C)N(C(=O)C12C3C4C5(C#N)C3C1(C#N)C5C42I)C(C)C (stereo not given) classified in this test?
Response: -1

Request: How was CC(C)OC(=O)Nc1cccc(Cl)c1 classified in this test?
Response: -1

Request: How was ClCCN(CCCl)c1ccc(CNCCCNCc2ccc(N(CCCl)CCCl)cc2)cc1 classified in this test?
Response: -1

Request: How was Cc1nc(N)nc(N)c1-c1ccc(Cl)c(Cl)c1 classified in this test?
Response: -1

Request: How was CO[C@]12C[C@H](CNC(=O)c3cc(Br)c(Br)[nH]3)O[C@H]1NC(=O)N2 classified in this test?
Response: -1

Request: How was Cc1ccc([N+](=O)[O-])c2c(NCCCN(C)C)ccnc12 classified in this test?
Response: -1

Request: How was CCOC(=O)[C@H](Cc1ccc(O)cc1)/N=C1/[C@H]2CCC[C@]1(O)[C@@](C)([N+](=O)[O-])C2 classified in this test?
Response: -1

Request: How was COC(=O)C(C(=O)C(=O)Nc1ccc(N)cc1[N+](=O)[O-])c1nc2ccc(Cl)cc2nc1O (stereo not given) classified in this test?
Response: -1

Request: How was Cc1cc(NS(=O)(=O)c2ccc(NC(NC(=O)C(C(F)(F)F)C(F)(F)F)(C(F)(F)F)C(F)(F)F)cc2)no1 classified in this test?
Response: -1
